All values here come from patent US20240083857A1.

# TARGET ENTITY: human SOS1 (nucleotide exchange of K-Ras^G12C) (Homo sapiens, UniProt Q07889)
# ASSAY NOTES: Biochemical assay 2: K-Ras^G12C activation assay by hSOS1 at high GTP concentration (HTRF)
# DETAILS: E-notation values; unit inferred; 50 μM GTP; read-out: Assay 2 (KRAS-Activation, high GTP) IC50
VALUE TYPE: IC50

{"columns": ["COMPOUND", "IC50"],
 "data": [
  ["COc1cc2nc(C)nc(NC(C)c3ccc(-c4ccc(Cl)cc4CNC(=O)OC(C)(C)C)s3)c2cc1OC (stereo not drawn)", "> 20 µM"],
  ["COC(=O)c1ccc2c(N[C@H](C)c3cccc(Cl)c3)nc(C)nc2c1", "> 20 µM"]
]}

Bench note: what IC50 did COc1cc2nc(C)nc(NC(C)c3ccc(-c4ccc(CNC(=O)OC(C)(C)C)s4)s3)c2cc1OC (stereo not drawn) show?
> 20 µM

---

# TARGET ENTITY: K-Ras^G12C : hSOS1 interaction (Homo sapiens)
# ASSAY NOTES: Biochemical assay 1: K-Ras^G12C interaction assay with hSOS1 (HTRF)
# Type: binding
# DETAILS: read-out: Assay 1 (KRAS-SOS Interaction) activity expressed as IC50
VALUE TYPE: pIC50
For clarity, pIC50 is expressed as the negative log10 of concentration in mol/L.

Check out these entries, answers already filled in.
{"columns": ["MOLECULE", "VALUE TYPE", "QUANTITATIVE RESULT"],
 "data": [
  ["COc1cc2nc(C)nc(N[C@@H](C)c3ccc(-c4cccc5cnccc45)s3)c2cc1OC (racemic)", "pIC50", 5.82],
  ["COc1cc2nc(C)nc(N[C@H](C)c3cccc(-c4cnc(N)nc4)c3)c2cc1OC", "pIC50", 5.90]
]}

What reported pIC50 corresponds to COc1cc2nc(C)nc(NC(C)c3ccc(-c4ccccc4CNCC(=O)NCc4ccccc4)s3)c2cc1OC (stereo not drawn) on K-Ras^G12C : hSOS1 interaction (Homo sapiens)?
5.97

---

# TARGET ENTITY: human SOS1 (nucleotide exchange of K-Ras^G12C) (Homo sapiens, UniProt Q07889)
# ASSAY NOTES: Biochemical assay 2: K-Ras^G12C activation assay by hSOS1 at high GTP concentration (HTRF)
# DETAILS: read-out: Assay 2 (KRAS-Activation by SOS high GTP) activity expressed as % inhibition at 20 μM; high GTP; at 20 μM
Quick reference: inhibition at 20 µM of the listed items.
Express it in %; write the number only.

{"columns": ["MOLECULE", "READING UNIT", "inhibition at 20 µM"],
 "data": [
  ["COc1cc2nc(C)nc(N[C@@H](C)c3ccc(/C=C/C4CCCCC4)s3)c2cc1OC (racemic)", "%", 19],
  ["COc1cc2nc(C)nc(NC(C)c3ccc(-c4ccc(F)cc4CNC(=O)c4cc5ccccc5[nH]4)s3)c2cc1OC (centres unmarked)", "%", 48],
  ["CCCOc1ccc(Cl)cc1-c1ccc([C@H](C)Nc2nc(C)nc3cc(OC)c(OC)cc23)s1 (stereo in doubt)", "%", 12],
  ["COc1cc2nc(C)nc(N[C@@H](C)c3ccc(-c4cccc(OC(F)(F)F)c4)s3)c2cc1OC (stereo in doubt)", "%", 51],
  ["COc1cc2nc(C)nc(NC(C)c3ccc(=O)[nH]c3)c2cc1OC (single isomer, unassigned; enantiomer 1)", "%", 24]
]}

Observed inhibition at 20 µM on human SOS1 (nucleotide exchange of K-Ras^G12C) (Homo sapiens, UniProt Q07889) for COc1cccc(-c2ccc([C@H](C)Nc3nc(C)nc4cc(OC)c(OC)cc34)s2)c1 (stereo in doubt) , please.
40

Now the same for COc1cc2nc(C)nc(N[C@@H](C)c3ccc(-c4ccc(N5CCOCC5)cc4)s3)c2cc1OC (stereo in doubt)
14

Could you do the same for COc1cc2nc(C)nc(NC(C)c3ccc(-c4ccccc4CNc4ccccc4)s3)c2cc1OC (centres unmarked) , please?
27

And COc1cc2nc(C)nc(N[C@@H](C)c3ccc(-c4ccc5c(ccn5C)c4)s3)c2cc1OC (stereo in doubt) ?
35

---

# TARGET ENTITY: K-Ras^G12C : hSOS1 interaction (Homo sapiens, UniProt Q07889)
# ASSAY NOTES: Biochemical assay 1: K-Ras^G12C interaction assay with hSOS1 (HTRF)
# Type: binding
# DETAILS: E-notation values; unit inferred; read-out: Assay 1 (KRAS-SOS interaction) IC50
The label Yes is reserved for IC50 strictly under 700 nM; No covers values equal to or above it.

Please review the following examples before continuing.
{"columns": ["MOLECULE", "CATEGORY LABEL"],
 "data": [
  ["Cc1nc(N[C@H](C)c2cccc(Cl)c2)c2cc(-c3cnn(C)c3)ccc2n1 [Example 406]", "No"],
  ["Cc1nc(N[C@H](C)c2cccc(Cl)c2)c2cc(C(C)(C)O)ccc2n1 [Example 392]", "Yes"],
  ["COc1cc2nc(C)nc(NC(C)c3ccc(-c4ccnc(O)c4)s3)c2cc1OC (centres unmarked) [Example 410]", "No"],
  ["Cc1nc(NC(C)c2ccc(-c3ccccc3CN(C)C)s2)c2cc(N3CCCC3)ccc2n1 (centres unmarked) [Example 415]", "Yes"],
  ["COc1cc2nc(C)nc(NC(C)c3ccc(-c4ccccc4C(O)CO)s3)c2cc1OC (centres unmarked) [Example 403]", "Yes"],
  ["Cc1nc(NC(C)c2ccc(-c3ccccc3CN(C)C)s2)c2cc(NS(C)(=O)=O)ccc2n1 (centres unmarked) [Example 438]", "Yes"],
  ["COc1cc2nc(C)nc(NC(C)c3cc(C)c(-c4ccccc4CN(C)CCO)s3)c2cc1OC (centres unmarked) [Example 401]", "Yes"],
  ["COc1cc2nc(C)nc(NC(C)c3ccc(-c4cc(Cl)ccc4CNC(=O)OC(C)(C)C)s3)c2cc1OC (centres unmarked) [Example 387]", "No"],
  ["COc1cc2nc(C)nc(NC(C)c3ccc(-c4ccc(C)cc4CN(C)C)s3)c2cc1OC (centres unmarked) [Example 442]", "Yes"],
  ["Cc1nc(NC(C)c2ccc(Br)s2)c2cc(N3CCN(C)C(=O)C3)ccc2n1 (centres unmarked) [Example 434]", "No"]
]}

API: query returns whether the molecule falls strictly under 700 nM in IC50. Query: COc1cc2nc(C)nc(NC(C)c3ccc(-c4ccccc4CNC4CC4)s3)c2cc1OC (centres unmarked) [Example 370]
Yes

Next record, please: COc1cc2nc(C)nc(NC(C)c3cc(C)c(-c4ccc(F)cc4CN)s3)c2cc1OC (centres unmarked) [Example 399]
Yes

Entry to check: Cc1nc(N[C@H](C)c2cccc(Cl)c2)c2cc(-c3cn[nH]c3)ccc2n1 [Example 405]
No

What do you have for Cc1nc(NC(C)c2ccc(Br)s2)c2cc(N3CCC(N(C)C)C3)ccc2n1 (centres unmarked) [Example 414] ?
No

Queued: COc1cc2nc(C)nc(NC(C)c3cc(C)c(-c4ccccc4CN(C)C)s3)c2cc1OC (centres unmarked) [Example 400]
Yes

One more molecule: CNC(=O)Nc1ccc2nc(C)nc(NC(C)c3ccc(-c4ccccc4CN(C)C)s3)c2c1 (centres unmarked) [Example 457]
Yes

Also COc1cc2nc(C)nc(NC(C)c3ccc(-c4ccc(Br)cc4CN(C)C)s3)c2cc1OC (centres unmarked) [Example 384] , if possible.
Yes

Same question, Cc1nc(NC(C)c2ccc(-c3ccccc3CN(C)C)s2)c2cc(NCCN3CCOCC3)ccc2n1 (centres unmarked) [Example 433] this time
Yes

Continue with COCC(=O)NCc1cc(F)ccc1-c1ccc(C(C)Nc2nc(C)nc3cc(OC)c(OC)cc23)s1 (centres unmarked) [Example 383]
No

Ok, now COc1cc2nc(C)nc(NC(C)c3ccc(-c4cccc(Cl)c4CN)s3)c2cc1OC (centres unmarked) [Example 397]
Yes

Consider next the molecule Cc1nc(NC(C)c2ccc(-c3ccccc3CN(C)C)s2)c2cc(N3CCN(Cc4cccnc4)CC3)ccc2n1 (centres unmarked) [Example 426] in the same way.
Yes

Follow-up entry: Cc1nc(N[C@H](C)c2cccc(Cl)c2)c2cc(C3CC3)ccc2n1 [Example 407]
No

Next molecule: CC(=O)Nc1ccc2nc(C)nc(NC(C)c3ccc(-c4ccccc4CN(C)C)s3)c2c1 (centres unmarked) [Example 420]
Yes

// same read-out, input: COc1cc2nc(C)nc(N[C@H](C)c3cccc(-c4ccnc(O)c4)c3)c2cc1OC [Example 388]
Yes

Now consider COc1cc2nc(C)nc(NC(C)c3ccc(-c4ccccc4CN(C)C)s3)c2cc1OC (single isomer, unassigned) [Example 390] and answer again.
No
